Measured normalised viability, listed per entry for reference.
- Test system: MDA-MB-231
- measurement_protocol: normalised viability (% of control), CellTiter-Blue; higher = more viable cells (100 = DMSO, 0 = benzethonium chloride kill control)
- test_context: incubation time: 72 h
readout_type: normalised viability (%)

- compound: "CCN(CCCOc1ccc2c(Nc3cc(CC(=O)Nc4cccc(F)c4)[nH]n3)ncnc2c1)CCOP(=O)(O)O [Barasertib] (0.1 nM)"
  readout_type: "normalised viability"
  numeric_value: 113
- compound: "CNCc1ccc(-c2[nH]c3cc(F)cc4c3c2CCNC4=O)cc1 [Rucaparib] (1 nM)"
  readout_type: "normalised viability"
  numeric_value: 105
- compound: "CCC1=C[C@@H]2CN(C1)Cc1c([nH]c3ccccc13)[C@@](C(=O)OC)(c1cc3c(cc1OC)N(C)[C@H]1[C@@](O)(C(=O)OC)[C@H](OC(C)=O)[C@]4(CC)C=CCN5CC[C@]31[C@@H]54)C2 [Vinorelbine] (1 nM)"
  readout_type: "normalised viability"
  numeric_value: 93.3
- compound: "C[C@]12CC[C@@H]3c4ccc(O)cc4C[C@@H](CCCCCCCCC[S+]([O-])CCCC(F)(F)C(F)(F)F)[C@H]3[C@@H]1CC[C@@H]2O (stereo not given in full) [Fulvestrant] (1 nM)"
  readout_type: "normalised viability"
  numeric_value: 79
- compound: "Cn1c(Nc2ccc(C(F)(F)F)cc2)nc2cc(Oc3ccnc(-c4ncc(C(F)(F)F)[nH]4)c3)ccc21 [RAF265] (0.1 nM)"
  readout_type: "normalised viability"
  numeric_value: 117
- compound: "CC(C)Cn1cnc2c(N)nc3ccccc3c21 [Imiquimod] (1 nM)"
  readout_type: "normalised viability"
  numeric_value: 85.8
- compound: "CCC1(c2ccc(N)cc2)CCC(=O)NC1=O (stereo not given) [Aminoglutethimide] (1 nM)"
  readout_type: "normalised viability"
  numeric_value: 85.4
- compound: "Cc1ccc(C(=O)Nc2ccc(CN3CCN(C)CC3)c(C(F)(F)F)c2)cc1C#Cc1cnc2cccnn12 [Ponatinib] (0.1 nM)"
  readout_type: "normalised viability"
  numeric_value: 107
- compound: "CN(N=O)C(=O)N[C@@H](C=O)[C@@H](O)[C@H](O)[C@H](O)CO [Streptozocin] (1 nM)"
  readout_type: "normalised viability"
  numeric_value: 106
- compound: "CC(=O)Nc1ccc(C(=O)Nc2ccccc2N)cc1 [CI-994] (0.1 nM)"
  readout_type: "normalised viability"
  numeric_value: 91.9

###

- System: CAL-85-1
- measurement_protocol: normalised response (% of control), CellTiter-Glo; higher = more viable cells (100 = DMSO, 0 = benzethonium chloride kill control)
- test_context: incubation time: 72 h
Measured normalised response, listed per entry for reference.

- compound: "CC(=O)Nc1ccc(C(=O)Nc2ccccc2N)cc1 [Tacedinaline] (1000 nM)"
  normalised response [%]: 103
- compound: "NC(=O)Nc1cc(-c2cccc(F)c2)sc1C(=O)N[C@H]1CCCNC1 [AZD7762] (1000 nM)"
  normalised response [%]: 15.2
- compound: "Clc1ccc(Nc2nnc(Cc3ccncc3)c3ccccc23)cc1 [Vatalanib] (10000 nM)"
  normalised response [%]: 106
- compound: "CN(N=O)C(=O)N[C@@H](C=O)[C@@H](O)[C@H](O)[C@H](O)CO [Streptozocin] (10000 nM)"
  normalised response [%]: 98.5
- compound: "COc1cc([C@@H]2c3cc4c(cc3[C@@H](O[C@@H]3O[C@@H]5CO[C@@H](C)O[C@H]5[C@H](O)[C@H]3O)[C@H]3COC(=O)[C@H]23)OCO4)cc(OC)c1O [Etoposide] (10000 nM)"
  normalised response [%]: 49.8
- compound: "CNCc1ccc(-c2[nH]c3cc(F)cc4c3c2CCNC4=O)cc1 [Rucaparib] (10000 nM)"
  normalised response [%]: 93.7
- compound: "CC1(C)NC(=O)N(c2ccc([N+](=O)[O-])c(C(F)(F)F)c2)C1=O [Nilutamide] (10000 nM)"
  normalised response [%]: 99.7

###

- Test system: MDA-MB-231
- measurement_protocol: normalised response (% of control), CellTox Green; higher = less cell death (100 = DMSO, 0 = benzethonium chloride kill control)
- test_context: incubation time: 72 h

- molecule: "CN(N=O)C(=O)N[C@@H](C=O)[C@@H](O)[C@H](O)[C@H](O)CO [Streptozocin] (10000 nM)"
  unit_symbol: "%"
  normalised response: 106
- molecule: "COc1cc([C@@H]2c3cc4c(cc3[C@@H](O[C@@H]3O[C@@H]5CO[C@@H](C)O[C@H]5[C@H](O)[C@H]3O)[C@H]3COC(=O)[C@H]23)OCO4)cc(OC)c1O [Etoposide] (10000 nM)"
  unit_symbol: "%"
  normalised response: 61
- molecule: "CN(N=O)C(=O)N[C@@H](C=O)[C@@H](O)[C@H](O)[C@H](O)CO [Streptozocin] (1000 nM)"
  unit_symbol: "%"
  normalised response: 96.8
- molecule: "Clc1ccc(Nc2nnc(Cc3ccncc3)c3ccccc23)cc1 [Vatalanib] (1000 nM)"
  unit_symbol: "%"
  normalised response: 118
- molecule: "C[C@]12CC[C@@H]3c4ccc(O)cc4C[C@@H](CCCCCCCCC[S+]([O-])CCCC(F)(F)C(F)(F)F)[C@H]3[C@@H]1CC[C@@H]2O (some centres not stated) [Fulvestrant] (100 nM)"
  unit_symbol: "%"
  normalised response: 114
- molecule: "C#Cc1cccc(Nc2ncnc3cc(OCCOC)c(OCCOC)cc23)c1 [Erlotinib] (1000 nM)"
  unit_symbol: "%"
  normalised response: 101
- molecule: "O=P1(NCCCl)OCCCN1CCCl (configuration not stated) [Ifosfamide] (1000 nM)"
  unit_symbol: "%"
  normalised response: 96.2

###

- Tested on: SK-BR-3
- measurement_protocol: normalised viability (% of control), CellTiter-Blue; higher = more viable cells (100 = DMSO, 0 = benzethonium chloride kill control)
- test_context: incubation time: 72 h

- compound: "Oc1nc(-c2ccc(C(F)(F)F)cc2)nc2c1CSCC2 [XAV-939] (1 nM)"
  normalised viability / %: 99.3
- compound: "COc1cc([C@@H]2c3cc4c(cc3[C@@H](O[C@@H]3O[C@@H]5CO[C@@H](C)O[C@H]5[C@H](O)[C@H]3O)[C@H]3COC(=O)[C@H]23)OCO4)cc(OC)c1O [Etoposide] (1 nM)"
  normalised viability / %: 97.5
- compound: "O=C1CCC(N2C(=O)c3ccccc3C2=O)C(=O)N1 (stereo unspecified) [Thalidomide] (1 nM)"
  normalised viability / %: 102
- compound: "CN[C@@H]1C[C@H]2O[C@@](C)([C@@H]1OC)n1c3ccccc3c3c4c(c5c6ccccc6n2c5c31)C(=O)N[C@H]4O [UCN-01] (1 nM)"
  normalised viability / %: 104
- compound: "C=C(c1ccc(C(=O)O)cc1)c1cc2c(cc1C)C(C)(C)CCC2(C)C [Bexarotene] (1 nM)"
  normalised viability / %: 94.8
- compound: "Cc1ccc(-n2nc(C(C)(C)C)cc2NC(=O)Nc2ccc(OCCN3CCOCC3)c3ccccc23)cc1 [Doramapimod] (1 nM)"
  normalised viability / %: 108
- compound: "CO[C@H]1/C=C\\C=C(/C)C(=O)NC2=CC(=O)C(NCCN(C)C)=C(C[C@@H](C)C[C@H](OC)[C@H](O)[C@@H](C)/C=C(\\C)[C@@H]1OC(N)=O)C2=O [Alvespimycin] (0.1 nM)"
  normalised viability / %: 104
- compound: "CCC1(c2ccc(N)cc2)CCC(=O)NC1=O (stereo unspecified) [Aminoglutethimide] (1 nM)"
  normalised viability / %: 90
- compound: "CN(N=O)C(=O)N[C@@H](C=O)[C@@H](O)[C@H](O)[C@H](O)CO [Streptozocin] (1 nM)"
  normalised viability / %: 106
- compound: "N.N.[Cl][Pt][Cl] [Cisplatin] (1 nM)"
  normalised viability / %: 100
- compound: "NCC(=O)CCC(=O)O [Aminolevulinic acid] (1 nM)"
  normalised viability / %: 89

###

- Tested on: CAL-148
- measurement_protocol: normalised response (% of control), CellTiter-Glo; higher = more viable cells (100 = DMSO, 0 = benzethonium chloride kill control)
- test_context: incubation time: 72 h
readout_type: normalised response (%)

- compound: "CN(C)/N=N/c1[nH]cnc1C(N)=O [Dacarbazine] (100 nM)"
  unit_symbol: "%"
  numeric_value: 105
- compound: "CCCCCCCCCCCCCCCCCCOP(=O)([O-])OC1CC[N+](C)(C)CC1 [Perifosine] (25 nM)"
  unit_symbol: "%"
  numeric_value: 88.8
- compound: "CNCc1ccc(-c2[nH]c3cc(F)cc4c3c2CCNC4=O)cc1 [Rucaparib] (100 nM)"
  unit_symbol: "%"
  numeric_value: 86
- compound: "Oc1nc(-c2ccc(C(F)(F)F)cc2)nc2c1CSCC2 [XAV-939] (100 nM)"
  unit_symbol: "%"
  numeric_value: 101
- compound: "Cc1ccc(-n2nc(C(C)(C)C)cc2NC(=O)Nc2ccc(OCCN3CCOCC3)c3ccccc23)cc1 [Doramapimod] (100 nM)"
  unit_symbol: "%"
  numeric_value: 79.7
- compound: "CC(=O)Nc1ccc(C(=O)Nc2ccccc2N)cc1 [Tacedinaline] (10 nM)"
  unit_symbol: "%"
  numeric_value: 105
- compound: "O=C(O)c1ccc(-c2c[nH]c3ncc(-c4ccccc4)cc23)cc1C1CCCC1 (100 nM)"
  unit_symbol: "%"
  numeric_value: 88
- compound: "O=C1CCC(N2C(=O)c3ccccc3C2=O)C(=O)N1 (configuration not stated) [Thalidomide] (100 nM)"
  unit_symbol: "%"
  numeric_value: 97.4
- compound: "NC(=O)Nc1cc(-c2cccc(F)c2)sc1C(=O)N[C@H]1CCCNC1 [AZD7762] (10 nM)"
  unit_symbol: "%"
  numeric_value: 106
- compound: "COc1cc2nccc(Oc3ccc(NC(=O)C4(C(=O)Nc5ccc(F)cc5)CC4)cc3)c2cc1OC [Cabozantinib] (10 nM)"
  unit_symbol: "%"
  numeric_value: 110
- compound: "CC(C)Cn1cnc2c(N)nc3ccccc3c21 [Imiquimod] (25 nM)"
  unit_symbol: "%"
  numeric_value: 110
- compound: "CCC1=C[C@@H]2CN(C1)Cc1c([nH]c3ccccc13)[C@@](C(=O)OC)(c1cc3c(cc1OC)N(C)[C@H]1[C@@](O)(C(=O)OC)[C@H](OC(C)=O)[C@]4(CC)C=CCN5CC[C@]31[C@@H]54)C2 [Vinorelbine] (100 nM)"
  unit_symbol: "%"
  numeric_value: 42.8

Recorded values, source the supplement of paper PMC4862054.
